Data origin, for the record: PubChem BioAssay (EPA / NIEHS)

read-out: ABC Transporter (ABCB11), ABCB11 (gene 8647); assay: LTEA_HepaRG_ABCB11: Life Technologies and Expression Analysis (LTEA) Assay for ABC Transporter (ABCB11) using HepaRG (AID 2283463); conditions: mRNA level, 48 h; actives raise or lower the signal
Calls of active or inactive are those of the source. Rule for the calls: active = hit-call score of the fitted dose curve at least 0.9, where 1 is the maximum; inactive = score below 0.9.
QUANTITY KIND: AC50

Known results for compounds:
Quick one: AC50 for "CCN1CCC2(CC1)COc1cc3c(cc12)N(C(=O)c1ccc(-c2ccc(-c4nnc(C)o4)cc2C)cc1)CC3" ?
inactive

So what does the record say about AC50 for CCC(=O)C(CC(C)N(C)C)(c1ccccc1)c1ccccc1 (stereo not given) ?
inactive

State the recorded AC50 for this entry: "O=c1[nH]c(=O)[nH]c(=O)[nH]1"
inactive

Could you share which AC50 value was measured for "O=C(O)C(F)(F)C(F)(F)C(F)(F)C(F)(F)C(F)(F)C(F)(F)C(F)(F)C(F)(F)C(F)(F)C(F)(F)F" ?
13.7 µM (active)

Could you now look at the following compound, please?
Which AC50 reading was recorded for the compound "O=C(O)C(Cl)(Cl)Cl" ?
inactive

---

read-out: ABC Transporter (ABCB1), ABCB1 (gene 5243); experiment: LTEA_HepaRG_ABCB1: Life Technologies and Expression Analysis (LTEA) Assay for ABC Transporter (ABCB1) using HepaRG (AID 2283460); conditions: mRNA level, 48 h; actives raise or lower the signal
Activity calls are given as the source filed them. The calls were made as follows: active = hit-call score of the fitted dose curve at least 0.9, where 1 is the maximum; inactive = score below 0.9.
QUANTITY KIND: AC50

Entry "NC(=O)O" : reported AC50 = ?
inactive

For the compound "CN(C)N=O" , what AC50 is on record?
inactive

Which value of AC50 has been reported for "CCN1CCC2(CC1)COc1cc3c(cc12)N(C(=O)c1ccc(-c2ccc(-c4nnc(C)o4)cc2C)cc1)CC3" in the records?
17.4 µM (active)

For "Cn1sc(Cl)cc1=O" , what is its reported AC50?
inactive

AC50 lookup needed for CC12CC1(C)C(=O)N(c1cc(Cl)cc(Cl)c1)C2=O (configuration not stated) , thanks.
8.58 µM (active)

Field request: AC50 | item: "C[C@@H]1C[C@@H]([C@H](O)CC2CC(=O)NC(=O)C2)C(=O)[C@@H](C)C1"
83.5 µM (active)

Next:
Which AC50 is reported for this compound? "CCOP(=S)(OCC)SCSP(=S)(OCC)OCC"
inactive

Fill blank: measured AC50 of the compound "CCOP(=S)(OCC)Oc1nc(Cl)c(Cl)cc1Cl" is ____.
inactive

# input compound: "O=C(O)C(F)(F)C(F)(F)C(F)(F)C(F)(F)C(F)(F)C(F)(F)C(F)(F)C(F)(F)C(F)(F)C(F)(F)F" ; wanted: its AC50
inactive

Looking for the measured AC50 of "CC(=O)[O][Hg][c]1ccccc1" , can you help?
24.1 µM (active)

Param item = "CCC(C)(C)c1ccc(O)c(C(C)(C)CC)c1" ; retrieve measured AC50.
inactive

// lookup AC50 for "O=[N+]([O-])c1ccc(O)c([N+](=O)[O-])c1"
13.6 µM (active)

---

experiment: CCTE_Shafer_MEA_acute_burst_number: CCTE's Neural Acute Assay for Single-Electrode Bursts, Shafer Lab (AID 2284013)
The source made the active and inactive calls. The calls were made as follows: active = hit-call score of the fitted dose curve at least 0.9, where 1 is the maximum; inactive = score below 0.9.
Pick one and only one: t for active, f for inactive

A selection of reference data follows.
For ClC1(Cl)C2(Cl)C3(Cl)C4(Cl)C(Cl)(Cl)C5(Cl)C3(Cl)C1(Cl)C5(Cl)C24Cl (configuration not stated) , which call appears in the assay record?
f

So what was the verdict on "CC(C)(c1ccccc1)c1ccc(O)c(C(C)(C)c2ccccc2)c1" in this test?
f

// return assay outcome for "CC(C)(OO)c1ccccc1"
f

***
Please let me know the test result on file for "CC(C)(C)c1cc(O)ccc1O" .
f

Query: recorded result category for "C=C(C)C(=O)[O][Sn]([CH2]CCC)([CH2]CCC)[CH2]CCC" in this test
t

Assay result, entry "CC(C)(C)CC(C)(C)c1ccc(O)cc1" — outcome?
f

Recorded test outcome, item "CC(=O)[O][Hg][c]1ccccc1"
t

---

biological target: Luciferin 4-monooxygenase (Photinus pyralis); assay: CCTE_Simmons_QuantiLum_inhib_2: CCTE's Firefly Luciferase Inhibition Assay, Simmons Lab (AID 2283767);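 for AC50: potency for inhibitors that lower luciferase luminescence relative to DMSO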
Inconclusive results are not listed. Active and inactive are the calls of the source. Rule for the calls: active = hit-call score of the fitted dose curve at least 0.9, where 1 is the maximum; inconclusive = response in the unintended direction; inactive = score below 0.9.
QUANTITY KIND: AC50

Recorded AC50, per entry:
Need AC50 of "CC1(C)Cc2cccc(O)c2O1" , thanks.
inactive

Please look up its AC50: "O=C(O)C(F)(F)C(F)(F)C(F)(F)C(F)(F)C(F)(F)C(F)(F)F"
inactive

So what does the record say about AC50 for "CCOP(=S)(OCC)Oc1nc(Cl)c(Cl)cc1Cl" ?
inactive

Name the reported AC50 value associated with the molecule Clc1ccc(COC(Cn2ccnc2)c2ccc(Cl)cc2Cl)cc1 (configuration not stated)
inactive

Param item = "CCC(C)(C)c1ccc(O)c(C(C)(C)CC)c1" ; retrieve measured AC50.
inactive

Next:
# query: AC50 of entry CC12CC1(C)C(=O)N(c1cc(Cl)cc(Cl)c1)C2=O (configuration not stated)
inactive

Recorded AC50 for "CCOC(=O)Nc1cccc(OC(=O)Nc2ccccc2)c1" , please?
29.1 µM (active)

---

experiment: ACEA_AR_antagonist_AUC_viability: ACEA Biosciences xCELLigence Real-Time Cell Analysis on Androgen Receptor Antagonism for Viability (AID 2283776);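 note: 22Rv1 human prostate cancer cells growing on impedance electrode plates; area under impedance growth curve at 80 h after dosing as viability; hits lower the growth signal relative to DMSO meaning cytotoxicity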
Results filed as inconclusive are left out. Calls of active or inactive are those of the source. How the source made its calls: active means hit-call score of the fitted dose curve at least 0.9, where 1 is the maximum; inconclusive means response in the unintended direction; inactive means score below 0.9.
Log the outcome using a class from 1 = active, -1 = inactive

Look over these answered cases.
GET /call?item= CC(C)(c1ccc(OCC2CO2)cc1)c1ccc(OCC2CO2)cc1 (centres undefined) returns the recorded outcome of this test.
-1

Test call, this molecule: "Cc1ccc(N)cc1Cl"
-1

How did this test come out for "C=CC#N" ?
-1

What classification did "O=C/C=C/c1ccccc1" end up with in this test?
-1

***
Which outcome did this test record for the molecule CCC1(c2ccc(N)cc2)CCC(=O)NC1=O (centres undefined) ?
-1

Please indicate how the test categorized "NNC(=S)NN" .
-1

Per the records of this test, what outcome belongs to "CC(C)(c1ccccc1)c1ccc(O)c(C(C)(C)c2ccccc2)c1" ?
1

How did this test come out for "CC(=O)[O][Hg][c]1ccccc1" ?
1

GET /call?item= CCC(=O)C(CC(C)N(C)C)(c1ccccc1)c1ccccc1 (centres undefined) returns the recorded outcome of this test.
1

---

assay: ATG_MRE_CIS: Attagene CIS-FACTORIAL HepG2 Assay for human Metal Responsive Element (MRE) (AID 2282954); conditions: HepG2 MRE cis-reporter transcription, Attagene multiplex; actives raise or lower the signal
Active and inactive are the calls of the source. How the source made its calls: active means hit-call score of the fitted dose curve at least 0.9, where 1 is the maximum; inactive means score below 0.9.
Parameter call: string, one of active, inactive

Kindly provide the recorded test outcome for the following compound: "CCOC(=O)/C=C(C)/C=C/C[C@@H](C)CCCC(C)C"
active

Which result was noted for this compound in the test: CCC(C)c1cccc(C(C)CC)c1O (stereo not given)
inactive

Test call, this compound: "Clc1nc(Cl)nc(Cl)n1"
inactive

For this compound, state the assay outcome: "CC(=[OH+])/C=C(/C)[O-].CC(=[OH+])/C=C(/C)[O-].CC(=[OH+])/C=C(/C)[O-].[Fe]"
inactive

What classification did CC(=O)OC(c1ccccc1)C(Cl)(Cl)Cl (stereo not given) end up with in this test?
inactive

Tell me the assay call for "CCCCP(CCCC)CCCC" please.
inactive

Test call, this compound: "COS(=O)(=O)c1ccc(C)cc1"
inactive

Which outcome was entered for the compound "Cc1ccc(N)cc1Cl" in this test?
inactive

---
Outcome? "ClCCBr"
inactive

What was the test verdict on "O=C1C(Cl)=C(Cl)C(=O)c2ccccc21" ?
inactive

---

read-out: MicroRNA 122 (MIR122), gene 406906; assay: LTEA_HepaRG_MIR122: Life Technologies and Expression Analysis (LTEA) Assay for MicroRNA 122 (MIR122) using HepaRG (AID 2283516); settings: mRNA level, 48 h; actives raise or lower the signal; note: the transcript read is the microRNA miR-122
The source made the active and inactive calls. The calls were made as follows: active = hit-call score of the fitted dose curve at least 0.9, where 1 is the maximum; inactive = score below 0.9.
# output must be one of T (active), F (inactive)

Examples from the recorded data:
Each compound tested received a call. Report the one for "ClCC(Cl)CCl" .
F

Query: recorded result category for "Cn1sc(Cl)cc1=O" in this test
F

What was the test verdict on "O=c1[nH]c(=O)[nH]c(=O)[nH]1" ?
F

Fill in: this test's call for CCC(=O)C(CC(C)N(C)C)(c1ccccc1)c1ccccc1 (configuration not stated) is ___
F

GET /call?item= "CCOP(=S)(OCC)SCSP(=S)(OCC)OCC" returns the recorded outcome of this test.
F

Query: recorded result category for "CC(C)(C)CC(C)(C)c1ccc(O)cc1" in this test
F

Continuing:
Look up the recorded call for "O=C(Nc1ccc2[nH]ccc2c1)c1cc2cc(F)ccc2n1Cc1cccc(F)c1" in this test.
T
